The measured values listed here are drawn from the supplement of paper PMC6555819.

Test system: LXRb homodimer (NR concentration 270 nM)
Assay notes: PBM binding z-score (relative to random genomic background probes); higher = stronger binding; sequences stand for … in GC…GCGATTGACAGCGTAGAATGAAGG
# label = bin(measured PBM binding z-score), where bins are Low (below 0.06), Medium (0.06 to below 0.4), High (0.4 or more)

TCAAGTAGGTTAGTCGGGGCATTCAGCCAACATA ... Medium
CCTACTGCGCCATCAGGTCATTGATATCAACGTT ... High
TCTATTAATTGATTAGGGCAACCGAAACAGCGGA ... High

Now let's try a different one.
q: Using the reported PBM binding z-score, which band applies to CAAACTAGGTCAAGAGGTCACAGTCCGCTTCCCG ?
a: High
